Where these numbers come from: ChEMBL document CHEMBL4052624

subject_of_test: Beta-lactamase VIM-2 (Pseudomonas aeruginosa, UniProt Q9K2N0)
method_description: Inhibition of Pseudomonas aeruginosa 301-5473 6His-tagged VIM-2 (V27 to E268 residues) expressed in Escherichia coli BL21 Star(DE3) pLysS using nitrocefin as substrate preincubated for 5 mins followed by substrate addition by spectrophotometric analysis
assay_metric: pIC50
Give bare numbers, as −log10 of the molar value.

# compound, pIC50
records = [
    ("CC(=O)SCC(CCCc1ccccc1)P(=O)(O)O (stereo not drawn)", 5.33),
    ("CC(=O)SCC(Cc1ccccc1)c1nnn[nH]1 (stereo not drawn)", 4.17),
    ("O=P(O)(O)C(CO)CCCc1ccccc1 (stereo not drawn)", 4.47),
]

Below is a list of compounds. For each, state its recorded pIC50.
1. c1ccc(CCCC(CSC2CCCCC2)c2nnn[nH]2)cc1 (stereo not drawn)
2. O=C(O)C(CS)CCCCc1ccccc1 (stereo not drawn)
3. O=P(O)(O)C(CS)CCCCc1ccccc1 (stereo not drawn)
4. CCOP(=O)(OCC)C(CCc1ccccc1)CSC(C)=O (stereo not drawn)

Result:
1: 5.30; 2: 5.54; 3: 5.07; 4: 3.88

Go through the list and state pIC50 for each entry.
1. CCOP(=O)(OCC)C(CCCCc1ccccc1)CSC(C)=O (stereo not drawn)
2. O=P(O)(O)C(CS)CCCc1ccccc1 (stereo not drawn)
3. CC(=O)SCC(CCc1ccccc1)P(=O)(O)O (stereo not drawn)
4. CC(=O)SCC(CCCc1ccccc1)c1nnn[nH]1 (stereo not drawn)

Result:
1: 4.70; 2: 4.48; 3: 5.64; 4: 4.38

State recorded pIC50 for all listed compounds.
1. SCC(CCCc1ccccc1)c1nnn[nH]1 (stereo not drawn)
2. CCOP(=O)(OCC)C(CS)CCc1ccccc1 (stereo not drawn)
3. CCOP(=O)(OCC)C(CS)CCCCc1ccccc1 (stereo not drawn)
4. O=P(O)(O)C(CS)CCc1ccccc1 (stereo not drawn)
5. O=P(O)(O)C(CO)CCCCc1ccccc1 (stereo not drawn)
6. CCOP(=O)(OCC)C(CS)CCCc1ccccc1 (stereo not drawn)
7. CCOP(=O)(OCC)C(CCCc1ccccc1)CSC(C)=O (stereo not drawn)

Result:
[4.55, 6.05, 5.78, 5.11, 5.35, 6.42, 4.47]

Q: Bench note: what pIC50 did CC(=O)SCC(CCCCc1ccccc1)P(=O)(O)O (stereo not drawn) show?
Result: 5.74

----------
Test system: Pseudomonas aeruginosa
method_description: Growth inhibition of Pseudomonas aeruginosa K34-7 after 20 hrs
assay_metric: MIC

# compound, MIC
measured = [
    ("O=P(O)(O)C(CS)CCc1ccccc1 (configuration not stated)", "> 500 mg/L"),
    ("CCOP(=O)(OCC)C(CS)CCCc1ccccc1 (configuration not stated)", "> 500 mg/L"),
    ("CCOP(=O)(OCC)C(CCCc1ccccc1)CSC(C)=O (configuration not stated)", "> 1000 mg/L"),
    ("CC(=O)SCC(CCCc1ccccc1)P(=O)(O)O (configuration not stated)", "> 500 mg/L"),
    ("CC(=O)SCC(CCCCc1ccccc1)P(=O)(O)O (configuration not stated)", "> 500 mg/L"),
    ("O=P(O)(O)C(CS)CCCc1ccccc1 (configuration not stated)", "1000 mg/L"),
]

Please look at the following compound next.
Q: Record lookup: for Pseudomonas aeruginosa, what MIC belongs to CCOP(=O)(OCC)C(CS)CCc1ccccc1 (configuration not stated) ?
Result: > 500 mg/L

----------
Test system: Klebsiella pneumoniae
method_description: Inhibition of Klebsiella pneumoniae NDM1 expressed in Escherichia coli SNO3 whole cells using imipenem as substrate at 250 uM preincubated for 20 mins followed by substrate addition measured every min up to 60 mins by spectrophotometric analysis relative to control
Calls of active or inactive are those of the source. No cut-off for these calls is given here.
assay_metric: inhibition

Before answering, review these 10 worked examples.
# compound, inhibition
data = [
    ("O=P(O)(O)C(CO)CCc1ccccc1 (stereo unspecified)", "3.75%"),
    ("O=P(O)(O)C(CS)CCCc1ccccc1 (stereo unspecified)", "45%"),
    ("CC(=O)SCC(CCCc1ccccc1)P(=O)(O)O (stereo unspecified)", "38%"),
    ("CC(=O)SCC(Cc1ccccc1)c1nnn[nH]1 (stereo unspecified)", "32%"),
    ("c1ccc(CCCC(CSC2CCCCC2)c2nnn[nH]2)cc1 (stereo unspecified)", "inactive"),
    ("CCOP(=O)(OCC)C(CO)CCCCc1ccccc1 (stereo unspecified)", "1%"),
    ("CCOP(=O)(OCC)C(CO)CCCc1ccccc1 (stereo unspecified)", "inactive"),
    ("O=P(O)(O)C(CO)CCCCc1ccccc1 (stereo unspecified)", "4%"),
    ("CCOP(=O)(OCC)C(CCc1ccccc1)CSC(C)=O (stereo unspecified)", "inactive"),
    ("CCOP(=O)(OCC)C(CS)CCc1ccccc1 (stereo unspecified)", "33%"),
]

Q: Dear colleague, I am looking for the recorded inhibition of the following compound: CC(=O)SCC(CCCCc1ccccc1)P(=O)(O)O (stereo unspecified)
Result: 37%

----------
subject_of_test: GIM-1 protein (Pseudomonas aeruginosa, UniProt Q704V1)
Sequence (Q704V1 whole entry, the tested form may be a part): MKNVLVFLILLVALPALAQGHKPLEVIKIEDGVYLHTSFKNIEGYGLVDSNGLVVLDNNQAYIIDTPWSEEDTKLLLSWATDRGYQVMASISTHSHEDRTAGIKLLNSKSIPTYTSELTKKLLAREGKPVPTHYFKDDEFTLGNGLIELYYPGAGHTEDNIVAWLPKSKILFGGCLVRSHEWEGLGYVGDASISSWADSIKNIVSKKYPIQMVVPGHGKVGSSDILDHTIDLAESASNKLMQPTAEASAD
method_description: Inhibition of Pseudomonas aeruginosa 6His-tagged GIM-1 (Q19 to D250 residues) expressed in Escherichia coli BL21 Star(DE3) pLysS using nitrocefin as substrate preincubated for 5 mins followed by substrate addition by spectrophotometric analysis
condition_description: read-out: IC50
assay_metric: pIC50
Give bare numbers, as −log10 of the molar value.

See these solved cases before continuing.
# molecule, subject_of_test, pIC50
rows = [
    ("O=P(O)(O)C(CS)CCCCc1ccccc1 (configuration not stated)", "GIM-1 protein (Pseudomonas aeruginosa, UniProt Q704V1)", 4.80),
    ("CC(=O)SCC(CCCc1ccccc1)P(=O)(O)O (configuration not stated)", "GIM-1 protein (Pseudomonas aeruginosa, UniProt Q704V1)", 4.59),
    ("CC(=O)SCC(CCCCc1ccccc1)P(=O)(O)O (configuration not stated)", "GIM-1 protein (Pseudomonas aeruginosa, UniProt Q704V1)", 4.70),
    ("CCOP(=O)(OCC)C(CS)CCc1ccccc1 (configuration not stated)", "GIM-1 protein (Pseudomonas aeruginosa, UniProt Q704V1)", 6.74),
]

Moving on to another molecule below.
Q: # query: pIC50 of entry CCOP(=O)(OCC)C(CCc1ccccc1)CSC(C)=O (configuration not stated)
Result: 4.74

----------
Tested on: Escherichia coli
method_description: Inhibition of VIM-29 in Escherichia coli 50639799 assessed as potentiation of meropenem-induced antimicrobial activity by measuring meropenem MIC at 125 uM after 20 hrs (reference value: 8 to 32 mg/L)
Exercise: for every item that follows, state its recorded MIC.

// solved cases for MIC follow
# molecule, assay_metric, observed_result
rows = [
    ("O=P(O)(O)C(CS)CCc1ccccc1 (configuration not stated)", "MIC", "4 µg/mL"),
    ("CC(=O)SCC(CCCCc1ccccc1)P(=O)(O)O (configuration not stated)", "MIC", "2 µg/mL"),
    ("CC(=O)SCC(CCCc1ccccc1)P(=O)(O)O (configuration not stated)", "MIC", "1 µg/mL"),
    ("CCOP(=O)(OCC)C(CS)CCc1ccccc1 (configuration not stated)", "MIC", "8 µg/mL"),
    ("O=P(O)(O)C(CS)CCCc1ccccc1 (configuration not stated)", "MIC", "1 µg/mL"),
    ("CCOP(=O)(OCC)C(CCCc1ccccc1)CSC(C)=O (configuration not stated)", "MIC", "4 to 8 µg/mL"),
]

Proceed to the following item.
Q: Field: MIC (Escherichia coli). Entry: CCOP(=O)(OCC)C(CS)CCCc1ccccc1 (configuration not stated)
Result: 8 µg/mL

----------
method_description: Inhibition of Klebsiella pneumoniae 6His-tagged NDM1 (G36 to R280 residues) expressed in Escherichia coli BL21 Star(DE3) pLysS using imipenem as substrate preincubated for 5 mins followed by substrate addition by spectrophotometric analysis
condition_description: read-out: IC50
assay_metric: IC50

# molecule, IC50
measured = [
    ("CCOP(=O)(OCC)C(CO)CCCc1ccccc1 (centres undefined)", "> 10 µM"),
    ("CCOP(=O)(OCC)C(CO)CCCCc1ccccc1 (centres undefined)", "> 10 µM"),
    ("CCOP(=O)(OCC)C(CO)CCc1ccccc1 (centres undefined)", "> 10 µM"),
]

Now consider the entry below.
Q: So what does the record say about IC50 for O=P(O)(O)C(CO)CCc1ccccc1 (centres undefined) ?
Result: 59 µM

----------
subject_of_test: GIM-1 protein (Pseudomonas aeruginosa)
method_description: Inhibition of Pseudomonas aeruginosa 6His-tagged GIM-1 (Q19 to D250 residues) expressed in Escherichia coli BL21 Star(DE3) pLysS using nitrocefin as substrate preincubated for 5 mins followed by substrate addition by spectrophotometric analysis
condition_description: read-out: IC50
assay_metric: IC50

For orientation, consider the following solved cases.
# compound, observed_result
records = [
    ("O=P(O)(O)C(CO)CCc1ccccc1 (stereo not drawn)", "99 µM"),
    ("O=P(O)(O)C(CO)CCCCc1ccccc1 (stereo not drawn)", "> 10 µM"),
]

// below: IC50 requested for another compound
Q: # lookup: IC50 of c1ccc(CCCC(CSC2CCCCC2)c2nnn[nH]2)cc1 (stereo not drawn)
Result: 36 to 162 µM
